Ref: PubChem BioAssay AID2060484

Measured viability, T/C of individual entries
# Test system: SUM149PT spheroids with HUVEC/MSC, viability
# EXPERIMENTAL_PROTOCOL: Anticancer human tumor SUM149PT cell line growth inhibition [GQUAD];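 further: spheroids exposed to drugs for seven days before readout; percent viability relative to DMSO vehicle control taken as 100%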
# STATED_CONDITIONS: second compound 0.1 µM; first compound 0.0316 µM; stronger effect = lower value

COMPOUND: CCCS(=O)(=O)Nc1ccc(F)c(C(=O)c2c[nH]c3ncc(-c4ccc(Cl)cc4)cc23)c1F + Cc1[nH]c2ccc(F)cc2c1-c1nc2c3cccnc3c3ncccc3c2[nH]1
UNIT_STRING: %
viability, T/C: 102
--
COMPOUND: O=c1[nH]cc(F)c(=O)[nH]1 + Cc1cnc(CNC(=O)c2c(=O)c3ccc(N4CCCN(C)CC4)nc3n3c2sc2ccccc23)cn1
UNIT_STRING: %
viability, T/C: 73.6
--
COMPOUND: Cc1cccc(N(C)C(=O)C2C(O)CCN2c2nc(C)cc(C(F)(F)F)c2C#N)c1 (configuration not stated) + CN(C)c1ccc(Nc2c3ccc(NC(=O)CCN4CCCC4)cc3nc3cc(NC(=O)CCN4CCCC4)ccc23)cc1
UNIT_STRING: %
viability, T/C: 108
--
COMPOUND: Nc1ccn(C2OC(CO)C(O)C2(F)F)c(=O)n1 (configuration not stated) + CN(C)c1ccc(Nc2c3ccc(NC(=O)CCN4CCCC4)cc3nc3cc(NC(=O)CCN4CCCC4)ccc23)cc1
UNIT_STRING: %
viability, T/C: 80.2
--
COMPOUND: CCc1c2c(nc3ccc(O)cc13)-c1cc3c(c(=O)n1C2)COC(=O)[C@]3(O)CC + Cc1[nH]c2ccc(F)cc2c1-c1nc2c3cccnc3c3ncccc3c2[nH]1
UNIT_STRING: %
viability, T/C: 34.2
--
COMPOUND: CC(=O)O[C@H]1C(=O)[C@@]2(C)[C@H]([C@H](OC(=O)c3ccccc3)[C@]3(O)C[C@H](OC(=O)[C@H](O)[C@@H](NC(=O)c4ccccc4)c4ccccc4)C(C)=C1C3(C)C)[C@]1(OC(C)=O)CO[C@@H]1C[C@@H]2O + Cc1[nH]c2ccc(F)cc2c1-c1nc2c3cccnc3c3ncccc3c2[nH]1
UNIT_STRING: %
viability, T/C: 34.9
--
COMPOUND: Cc1cccc(N(C)C(=O)C2C(O)CCN2c2nc(C)cc(C(F)(F)F)c2C#N)c1 (configuration not stated) + Cc1cnc(CNC(=O)c2c(=O)c3ccc(N4CCCN(C)CC4)nc3n3c2sc2ccccc23)cn1
UNIT_STRING: %
viability, T/C: 63.1

---

# Tested on: SUM149PT spheroids with HUVEC/MSC, viability
# EXPERIMENTAL_PROTOCOL: Anticancer human tumor SUM149PT cell line growth inhibition [GQUAD];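 further: spheroids exposed to drugs for seven days before readout; percent viability relative to DMSO vehicle control taken as 100%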
# STATED_CONDITIONS: second compound 0.0316 µM; first compound 10 µM; stronger effect = lower value

MOLECULE: C#Cc1c(F)ccc2cc(O)cc(-c3ncc4c(N5CC6CCC(C5)N6)nc(OCC56CCCN5CC(F)C6)nc4c3F)c12 (stereo not given) + CN(C)c1ccc(Nc2c3ccc(NC(=O)CCN4CCCC4)cc3nc3cc(NC(=O)CCN4CCCC4)ccc23)cc1
ASSAY_TARGET: SUM149PT spheroids with HUVEC/MSC, viability
viability, T/C / %: 40.8
--
MOLECULE: COc1ccc([C@@H](O)c2cc(-c3ncnc4cc(N5CCOCC5)ccc34)c(F)cc2Cl)nn1 + CN(C)c1ccc(Nc2c3ccc(NC(=O)CCN4CCCC4)cc3nc3cc(NC(=O)CCN4CCCC4)ccc23)cc1
ASSAY_TARGET: SUM149PT spheroids with HUVEC/MSC, viability
viability, T/C / %: 32.1
--
MOLECULE: CC(C)(O)C1CCC(Nc2ccc3ncc(-c4cccc(C(F)(F)F)c4)n3n2)CC1 (stereo not given) + Cc1[nH]c2ccc(F)cc2c1-c1nc2c3cccnc3c3ncccc3c2[nH]1
ASSAY_TARGET: SUM149PT spheroids with HUVEC/MSC, viability
viability, T/C / %: 53.3
--
MOLECULE: C#Cc1c(F)ccc2cc(O)cc(-c3ncc4c(N5CC6CCC(C5)N6)nc(OCC56CCCN5CC(F)C6)nc4c3F)c12 (stereo not given) + Cc1cnc(CNC(=O)c2c(=O)c3ccc(N4CCCN(C)CC4)nc3n3c2sc2ccccc23)cn1
ASSAY_TARGET: SUM149PT spheroids with HUVEC/MSC, viability
viability, T/C / %: 29
--
MOLECULE: O=C(NO)c1cnc(N2CCN(S(=O)(=O)c3ccc4ccccc4c3)CC2)nc1 + Cc1cnc(CNC(=O)c2c(=O)c3ccc(N4CCCN(C)CC4)nc3n3c2sc2ccccc23)cn1
ASSAY_TARGET: SUM149PT spheroids with HUVEC/MSC, viability
viability, T/C / %: 3.31
